Target: CCK-B (guinea pig cortex) (Cavia porcellus, UniProt H0VZC5)
Construct: guinea pig cortical preparations; from tissue; host or cells: guinea pig brain cortex membranes
Sequence (H0VZC5 1-426): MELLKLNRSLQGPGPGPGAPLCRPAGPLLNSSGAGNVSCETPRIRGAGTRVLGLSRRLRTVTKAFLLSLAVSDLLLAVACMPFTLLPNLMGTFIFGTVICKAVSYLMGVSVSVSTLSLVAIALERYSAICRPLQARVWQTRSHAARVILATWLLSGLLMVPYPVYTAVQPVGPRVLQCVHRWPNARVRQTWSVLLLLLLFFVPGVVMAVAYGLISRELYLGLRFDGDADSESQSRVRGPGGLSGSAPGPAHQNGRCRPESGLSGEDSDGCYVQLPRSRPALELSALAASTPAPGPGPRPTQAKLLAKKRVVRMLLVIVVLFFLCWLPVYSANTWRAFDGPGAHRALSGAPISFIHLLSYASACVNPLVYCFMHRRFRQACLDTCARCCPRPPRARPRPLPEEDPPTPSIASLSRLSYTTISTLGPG
Assay: [3H]L-365,260 CCK-B selective antagonist ligand binding, brain membranes
Here, each record is paired with measured A.R. = agonist ratio = IC50([3H]L365,260)/IC50([125I]CCK) data.
Parameter: A.R. = agonist ratio = IC50([3H]L365,260)/IC50([125I]CCK)

compound=CC1=C\[C@@H](OC(=O)c2ccccc2)CC(=O)Cc2nc(co2)C(=O)N2CCC=C2C(=O)O[C@H](C(C)C)[C@H](C)/C=C/C(=O)NC\C=C\1 value_prefix== result=2
compound="CC1=C\\[C@@H](O)CC(O)Cc2nc(co2)C(=O)N2CCC=C2C(=O)O[C@H](C(C)C)[C@H](C)/C=C/C(=O)NC\\C=C\\1 (single isomer, unassigned) [Example 14B]" value_prefix== result=1
compound=CC1=C\[C@@H](OC(=O)Nc2cccc([N+](=O)[O-])c2)CC(=O)Cc2nc(co2)C(=O)N2CCC=C2C(=O)O[C@H](C(C)C)[C@H](C)/C=C/C(=O)NC\C=C\1 value_prefix== result=12.9
compound=CC1=C\[C@@H](OC(=O)Nc2ccccc2[N+](=O)[O-])CC(=O)Cc2nc(co2)C(=O)N2CCC=C2C(=O)O[C@H](C(C)C)[C@H](C)/C=C/C(=O)NC\C=C\1 value_prefix== result=10
compound=CCC(=O)O[C@@H]1/C=C(C)/C=C/CNC(=O)/C=C/[C@@H](C)[C@@H](C(C)C)OC(=O)C2=CCCN2C(=O)c2coc(n2)CC(=O)C1 value_prefix== result=2
compound=CC(=O)OC1=Cc2nc(co2)C(=O)N2CCC=C2C(=O)O[C@H](C(C)C)[C@H](C)/C=C/C(=O)NC/C=C/C(C)=C/[C@@H](OC(C)=O)C1 value_prefix=> result=25
compound=CC1=C\[C@@H](OC(=O)Nc2ccccc2)CC(=O)Cc2nc(co2)C(=O)N2CCC=C2C(=O)O[C@H](C(C)C)[C@H](C)/C=C/C(=O)NC\C=C\1 value_prefix== result=5.3
compound=CNC(=O)O[C@@H]1/C=C(C)/C=C/CNC(=O)/C=C/[C@@H](C)[C@@H](C(C)C)OC(=O)C2=CCCN2C(=O)c2coc(n2)CC(=O)C1 value_prefix== result=19
compound=CCCCC(=O)O[C@@H]1/C=C(C)/C=C/CNC(=O)/C=C/[C@@H](C)[C@@H](C(C)C)OC(=O)C2=CCCN2C(=O)c2coc(n2)CC(=O)C1 value_prefix== result=2
compound=CC1=C\[C@@H](OC(=O)Nc2ccc([N+](=O)[O-])cc2)CC(=O)Cc2nc(co2)C(=O)N2CCC=C2C(=O)O[C@H](C(C)C)[C@H](C)/C=C/C(=O)NC\C=C\1 value_prefix== result=8.7
compound=CC1=C\[C@@H](OC(=O)Nc2cccc(C)c2)CC(=O)Cc2nc(co2)C(=O)N2CCC=C2C(=O)O[C@H](C(C)C)[C@H](C)/C=C/C(=O)NC\C=C\1 value_prefix== result=7.5
compound="CC1=C\\[C@@H](O)CC(O)Cc2nc(co2)C(=O)N2CCC=C2C(=O)O[C@H](C(C)C)[C@H](C)/C=C/C(=O)NC\\C=C\\1 (single isomer, unassigned) [Example 14A]" value_prefix== result=0.1
compound=CC(=O)O[C@@H]1/C=C(C)/C=C/CNC(=O)/C=C/[C@@H](C)[C@@H](C(C)C)OC(=O)C2=CCCN2C(=O)c2coc(n2)CC(=O)C1 value_prefix=> result=25

###

Tested on: Staphylococcus aureus (Mb 2983)
Assay: Agar diffusion disc assay, Sta 2983
Type: cell-based
Details: Staphylococcus aureus, 18 h; @ 20 g/disc; read-out: Inhibition zone diameter, Sta 2983
Parameter: zone of inhibition at 20 µg/disc

cpd_smiles=CC1=C\[C@@H](OC(=O)Nc2cccc([N+](=O)[O-])c2)CC(=O)Cc2nc(co2)C(=O)N2CCC=C2C(=O)O[C@H](C(C)C)[C@H](C)/C=C/C(=O)NC\C=C\1 result="0 mm"
cpd_smiles=CC1=C\[C@@H](OC(=O)c2ccccc2)CC(=O)Cc2nc(co2)C(=O)N2CCC=C2C(=O)O[C@H](C(C)C)[C@H](C)/C=C/C(=O)NC\C=C\1 result="0 mm"
cpd_smiles=CC(=O)O[C@@H]1/C=C(C)/C=C/CNC(=O)/C=C/[C@@H](C)[C@@H](C(C)C)OC(=O)C2=CCCN2C(=O)c2coc(n2)CC(=O)C1 result="0 mm"
cpd_smiles=CC(=O)OC1=Cc2nc(co2)C(=O)N2CCC=C2C(=O)O[C@H](C(C)C)[C@H](C)/C=C/C(=O)NC/C=C/C(C)=C/[C@@H](OC(C)=O)C1 result="0 mm"
cpd_smiles=CC1=C\[C@@H](OC(=O)Nc2ccccc2[N+](=O)[O-])CC(=O)Cc2nc(co2)C(=O)N2CCC=C2C(=O)O[C@H](C(C)C)[C@H](C)/C=C/C(=O)NC\C=C\1 result="0 mm"
cpd_smiles=CCCCC(=O)O[C@@H]1/C=C(C)/C=C/CNC(=O)/C=C/[C@@H](C)[C@@H](C(C)C)OC(=O)C2=CCCN2C(=O)c2coc(n2)CC(=O)C1 result="0 mm"

###

Here, each record is paired with measured zone of inhibition at 5 µg/disc data.
System: Micrococcus luteus (Mb 1101, ATCC 9341)
Experiment: Agar diffusion disc assay, Micr 1101
Type: cell-based
Settings: Micrococcus luteus, ATCC9341; 5.00 μg/disc; 25° C., ~18 hours; read-out: Mean of triplicate zone size versus Micrococcus luteus
Procedure: Cultures employed in evaluating antimicrobial activity included plant pathogens, human and animal opportunistic pathogens and selected laboratory strains having specific-antibiotic sensitivities or chromosomal or R-plasmid-mediated resistances. […] The agar diffusion MIC's were determined using the method described by Barry in Anitbiotics in Laboratory Medicine, 2nd Ed., Ed. V. Lorian, pp. 1-63, William & Wilkins, Baltimore, 1986. […] Zone sizes were measured to the nearest mm. […]
Parameter: zone of inhibition at 5 µg/disc

cpd_smiles=CC1=C\[C@@H](OC(=O)Nc2ccccc2[N+](=O)[O-])CC(=O)Cc2nc(co2)C(=O)N2CCC=C2C(=O)O[C@H](C(C)C)[C@H](C)/C=C/C(=O)NC\C=C\1 parameter="zone of inhibition at 5 µg/disc" result="15 mm"
cpd_smiles=CC1=C\[C@@H](OC(=O)Nc2ccccc2)CC(=O)Cc2nc(co2)C(=O)N2CCC=C2C(=O)O[C@H](C(C)C)[C@H](C)/C=C/C(=O)NC\C=C\1 parameter="zone of inhibition at 5 µg/disc" result="11 mm"
cpd_smiles=CCCCC(=O)O[C@@H]1/C=C(C)/C=C/CNC(=O)/C=C/[C@@H](C)[C@@H](C(C)C)OC(=O)C2=CCCN2C(=O)c2coc(n2)CC(=O)C1 parameter="zone of inhibition at 5 µg/disc" result="19 mm"
cpd_smiles=CC(=O)OC1=Cc2nc(co2)C(=O)N2CCC=C2C(=O)O[C@H](C(C)C)[C@H](C)/C=C/C(=O)NC/C=C/C(C)=C/[C@@H](OC(C)=O)C1 parameter="zone of inhibition at 5 µg/disc" result="12 mm"
cpd_smiles=CCC(=O)O[C@@H]1/C=C(C)/C=C/CNC(=O)/C=C/[C@@H](C)[C@@H](C(C)C)OC(=O)C2=CCCN2C(=O)c2coc(n2)CC(=O)C1 parameter="zone of inhibition at 5 µg/disc" result="13 mm"
cpd_smiles=CC1=C\[C@@H](OC(=O)Nc2ccc([N+](=O)[O-])cc2)CC(=O)Cc2nc(co2)C(=O)N2CCC=C2C(=O)O[C@H](C(C)C)[C@H](C)/C=C/C(=O)NC\C=C\1 parameter="zone of inhibition at 5 µg/disc" result="7 mm"
cpd_smiles=CNC(=O)O[C@@H]1/C=C(C)/C=C/CNC(=O)/C=C/[C@@H](C)[C@@H](C(C)C)OC(=O)C2=CCCN2C(=O)c2coc(n2)CC(=O)C1 parameter="zone of inhibition at 5 µg/disc" result="18 mm"
cpd_smiles=CC(=O)O[C@@H]1/C=C(C)/C=C/CNC(=O)/C=C/[C@@H](C)[C@@H](C(C)C)OC(=O)C2=CCCN2C(=O)c2coc(n2)CC(=O)C1 parameter="zone of inhibition at 5 µg/disc" result="14 mm"
